B1: NELF-E aptamer (parent)
chain: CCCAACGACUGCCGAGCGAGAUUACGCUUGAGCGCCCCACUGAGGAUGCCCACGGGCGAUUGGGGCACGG

Variants of: B1
Assay: HiTS-RAP
Conditions: with NELF-E (Drosophila)
pKd: −log10 of the molar value.

>  <change>
A4G G26U

>  <pKd>
8.15

$$$$
>  <change>
C9G G14U

>  <pKd>
8.19

$$$$
>  <change>
A4U A8U

>  <pKd>
8.21

$$$$
>  <change>
A19G U47G

>  <pKd>
8.15

$$$$
>  <change>
G14A G55U

>  <pKd>
8.06

$$$$
>  <change>
C36A G64A

>  <pKd>
7.84

$$$$
>  <change>
C13G G64U

>  <pKd>
8.05

$$$$
>  <change>
A5U U22G

>  <pKd>
8.21

$$$$
>  <change>
U29G G48U

>  <pKd>
8.21

$$$$
>  <change>
C12G U22C

>  <pKd>
8.16

$$$$
>  <change>
G7U G11A

>  <pKd>
8.21

$$$$
>  <change>
C6G C51U

>  <pKd>
8.15

$$$$
>  <change>
A4U G63U

>  <pKd>
7.95

$$$$
>  <change>
C17G G18U

>  <pKd>
8.20

$$$$
>  <change>
G16A U23G

>  <pKd>
8.22

$$$$
>  <change>
C25U U29G

>  <pKd>
8.18

$$$$
>  <change>
G20U U28C

>  <pKd>
8.04

$$$$
>  <change>
A4U C13G

>  <pKd>
8.23

$$$$
>  <change>
G14U G54A

>  <pKd>
7.90

$$$$
>  <change>
G7A U23G

>  <pKd>
8.23

$$$$
>  <change>
U29G C37G

>  <pKd>
8.08

$$$$
>  <change>
U29G U47A

>  <pKd>
7.96

$$$$
>  <change>
A5G A15U

>  <pKd>
8.15

$$$$
>  <change>
A8U U29G

>  <pKd>
8.23

$$$$
>  <change>
G11U C13U

>  <pKd>
8.21

$$$$
>  <change>
G18A G26A

>  <pKd>
8.16

$$$$
>  <change>
A24G A31U

>  <pKd>
8.16

$$$$
>  <change>
C17G G63U

>  <pKd>
7.99

$$$$
>  <change>
C9G C35U

>  <pKd>
7.84

$$$$
>  <change>
C6A C12G

>  <pKd>
8.18

$$$$
>  <change>
U10G G45U

>  <pKd>
8.13

$$$$
>  <change>
C13G A39G

>  <pKd>
8.02

$$$$

The reported measurements were obtained from the RNAGym collection of RNA variant scans (doi:10.1038/nmeth.2970).
